# Tested on: Radical scavenging activity
# Test Summary: Antioxidant activity assessed as inhibition of DPPH radical formation measured every min for 45 mins by spectrophotometric analysis
# Assay type: functional
Quantity Kind: IC50 (µM)
Numbers only, in µM.

Data request: Using known records, supply IC50 for VITAMIN E
Data returned: 31.1
